Source listed as the supplement of paper PMC9170038.

System: MS2 coat protein
measurementProtocol: apparent KD of MS2 coat protein; higher = weaker reporter binding
measurementContext: Eterna round: R107; input ligand: theophylline 20 uM
Each entry below carries its recorded apparent KD of MS2 coat protein.
readoutType: apparent KD of MS2 coat protein (nM)

AAACGCCACGGAAGGAGCGACAUGAGGAUCACCCAUGUAGUUUUGGCGGAUGCACCCUCCUGUCAGGUAGGUCGCCGUGCGAUAA [XArg-B26] : 71.8
UCAUAUUAGUGAGAUGUAAGGUAUCAUGAUACCAGUAGAUAAUUAUACCCUUGGCAGCAUAACAUGAGGAUCACCCAUGUACAUG [Ab] : 21.3
UAUCCACAUGAGGAUCACCCAUGUUAGGAAGGAGCGGUGAAUGCACCAGGUAGGUCGCCUAGCUGAGGACUGUCGAUGGAUUCGU [Exclusion - Arginine A (Freestyle 18)] : 30.8
UCGUUUGAGUCGGCCGCCACUGGUCUCAUGGUCAACAUGAGGAUCACCCAUGUAUCUUAGUUAAACAGGACCGGGACUCGAUCGA [#17 Exclusion Tryptophan B] : 67.7

----------
System: MS2 coat protein
measurementProtocol: apparent KD of MS2 coat protein; designed switch direction (-1 OFF switch, 1 ON switch): 1; higher = weaker reporter binding
measurementContext: input ligand: FMN 200 uM
readoutType: apparent KD of MS2 coat protein (nM)

GAAUAGUUGAGAGGAUAUCUAUGAUAAAAGGAUAGAGAAGGUUUUAACAUGAGGAUCACCCAUGUAGGACUAUAUAUGUGAAUA [Parity 82 - Jieux - Same State NG 1] (Eterna round: R96, puzzle: Same State NG 1) : 12.5
ACAUGAGGAUCACCCAUGUAUGCUCAGGAAACUGUGCAGCAUGAGGAUAUGGAUCCUAAUUGGAUCCAGAAGGCGUGAAUUAUU [Fiskers NG3ss - 25] (Eterna round: R96, puzzle: Same State NG 3) : 507
AUUAUUUAUGCAGGAUAUGAUUAACAUGAGGAUCACCCAUGUGGUGUUGUGAGUAAGGAGAGUGAUCAGAAGGGCAUUUUUUGU [JMF's solution 54] (Eterna round: R96, puzzle: Same State NG 2) : 713
GGUAGGUUACUACCAAACAUGAGGAUCACCCAUGUAAGUGGGAAGGAUAUGGUACCUUUUAGGUACCAGAAGGUCCAUAAAAUU [JL Fiskers NG3ss - 2 mod 7] (Eterna round: R96, puzzle: Same State NG 3) : 314

----------
Each entry below carries its recorded apparent KD of MS2 coat protein.
Test system: MS2 coat protein
measurementProtocol: apparent KD of MS2 coat protein; designed switch direction (-1 OFF switch, 1 ON switch): 1; higher = weaker reporter binding
measurementContext: Eterna round: R95; input ligand: none
readoutType: apparent KD of MS2 coat protein

CGUCCGGCCUGAGCUGGACGGAAGCUUGUACAUGAGGAUCACCCAUGUUCAUGUGCAGGCUUUUUGCUCGUCUUGUG [salish99_mir208a_modof_jandersonlee] (puzzle: Sensor for hsa-mir-208a) : 23.4 nM
CGUCCAGCCUGAGCUGGACAAAAGCAUGUACAUGAGGAUCACCCAUGUUCAUGUACAAGCUUUUUGCUCGUCUUAUC [salish99_208a_r3_055] (puzzle: Sensor for hsa-mir-208a) : 587 nM
AAUAUACAUGAGGAUCACCCAUGUUAGUAAAUGACAGGAUAUCGAAUAAAUAAAUAAUAACGAGAAGGGUCUAAUA [JMF's solution 3] (puzzle: Same State 1) : 20.8 nM
AGAGCCGGCACUGAGGAUAUUCAUAAUAAAACAUGAGGAUCACCCAUGUAGGCCAGAAGGCCUUGGGAGAAGGCAGGUCGGCUCU [Mat - Same State 2 - Mod of UCT - D69] (puzzle: Same State 2) : 220 nM
ACGCAGCUGGGUGAGGAUAUCGGUGGUACAACAUGAGGAUCACCCAUGUCCGAAGCUCGGACCUCCGAGAAGGCGCCCGGCUGCG [Soinraesar Omei Mod 2] (puzzle: Same State 2) : 57.8 nM

----------
System: MS2 coat protein
measurementProtocol: apparent KD of MS2 coat protein; designed switch direction (-1 OFF switch, 1 ON switch): -1; higher = weaker reporter binding
measurementContext: Eterna round: R95; input ligand: microRNA oligo, concentration not stated
Each entry below carries its recorded apparent KD of MS2 coat protein.
readoutType: apparent KD of MS2 coat protein

CGUGACUCAGGAUAUGUAUUAUAUCACAUGAGGAUCACCCAUGUCCAGCGAAAGCUGGAGGCAGAAGGGAGUCACG [Fiskers Ex 5 - 47] (puzzle: Exclusion 5) : 87.6 nM
AAGAAACAUGAGGAUCACCCAUGUGAGGAUAUGAUCAAGAAAAGAAAAGAAAGAAGAGUCAGAAGGCACAAAGG [salish99-ex1_r3_065] (puzzle: Exclusion 1) : 291 nM
UUUGUUUAUGUGAGGAUAUACUGUUUGUAUUGAUUGUAGAAGGUACAUGAGGAUCACCCAUGUUUUGUAUUUAU [JR_BME4_Sub035] (puzzle: Brourd's mod of Exclusion 4) : 17.7 nM
AGAUGUAGAUACCGAUCCUACAUGAGGAUCACCCAUGUAGCUAGACGUGCACGCGUAGCUCGUCAGACUACCAGUAG [salish99_TOv1_r3_086] (puzzle: Sensor v3, turn-off variant 1) : 336 nM
GAGUGACAUGAGGAUCACCCAUGUGAGGAUAUCGGACGGACCUAGUUAGCUUCCGCCGCGAGAAGGCACAUCGG [Exclusion 1 V24] (puzzle: Exclusion 1) : 63.1 nM

----------
Tested on: MS2 coat protein
measurementProtocol: apparent KD of MS2 coat protein; higher = weaker reporter binding
measurementContext: Eterna round: R107; input ligand: arginine 13.2 mM
readoutType: apparent KD of MS2 coat protein (nM)

AAUGAGUGGUGGUCAAACAUGGGUGAUCAACGAGGACCGGUACGGCCGCCACUCGAUAACAUGAGGAUCACCCAUGUAAUAAUAA [|T'-M'-Trp-Ms2|_Design9] : 55.5
UUGGGUUUGUGAAGGAGCGGGUAUGUUUUCUAGUGGAUCCUAACAUGAGGAUCACCCAUGUCCCAGGUAGGUCGCGCGGGUUUGG [12.U] : 64.6
UAUCCACAUGAGGAUCACCCAUGUAGGGAAGGAGCGGUGGUUUCACCAGGUAGGUCGCCUUACUGAGGAGAACCGGUGGAAUCGU [Exclusion - Arginine A (Freestyle 29)] : 23.8
UAUCGUCAGACGGCCGCCACUAGUACAUGAGGAUCACCCAUGUAGGUCCUAGAUUCCUCAUGAUCUAGGACCGGGUCUGACGAAU [(Trp1)-(Ms2)-(T)'-(M)'-(Trp2)_Design16] : 21.4
UUUUUUAACAUGGCGUAUCGGAAAACCGAUACCAGUACAGAAAUGUACCCUUGGCAGCGGCGUUUUACAUGAGGAUCACCCAUGU [Ex Theophylline A 3] : 21.2
CCGACGAUGACCAAAGGUCAGGAGUGCGCACGAGGACCGGUACGGCCGCCACUCGAGGAGUGGGACAUGAGGAUCACCCAUGUAA [X-TryptA-ms2@65-1] : 23.9

----------
Test system: MS2 coat protein
measurementProtocol: apparent KD of MS2 coat protein, switch OFF state (with FMN for OFF switches, without FMN for ON switches); designed switch direction (-1 OFF switch, 1 ON switch): -1; higher = weaker reporter binding
measurementContext: FMN input: 0 or 200 uM; Eterna round: R93 (includes R88 designs)
readoutType: apparent KD of MS2 coat protein (nM)

AGCUAGUCAGGAUAUACGAACAUGUCAAAAGACGUGAAGGGACAUGAGGAUCACCCAUGUAGAAGGGACUAGCU [salish99-Ex2-20] : 106
AGAACGUCAGGAUAUCCAACAACAAGUAAAUAGAGAAGAAGGGAGAAGGGACAUGAGGAUCACCCAUGUAAGAA [e4-2] : 29.9
AAAAGGUCAGGAUAUGCCCACCAGGAAAAAAAACCAGGUGGGCAGAAGGGACAUGAGGAUCACCCAUGUAAAAA [Excls4-I] : 107
AAAAACCUAGGAUAUACAUGAGGAUCACCCAUGUAAAGAAACAAAAAGGGAAAAACAAGUAGAAGGAGGAAGAA [JR_Exc003_Sub1202] : 18.2
AACAGUACAGGAUAUACAUGAGGAUCACCCAUGUAGGGAUAAAGUGGCGUACCACAAAGUAGAAGGGUACUGGA [Moding Maslow revisited (73) 4] : 142
AGCUAGUCAGGAUAUACGAGAAUGUCAAAAGACGUGAAGGGACAUGAGGAUCACCCAUGUAGAAGGGACUAGCA [Diamond 23] : 208
AGUUGGCGAGGAUAUACAUGAGGAUCACCCAUGUAAAAUAAUGAAAAAGUAGGGAAAAGUAGAAGGCGCUGACA [73%, Moding Norbert Elias, 19] : 96.7
